Assay: Far-UV circular dichroism, helical content of T-domain peptides
Assay type: physicochemical
Conditions: total number in peptide excluding tags minus residues in helices
# no. of residues, unordered annotations
Report the value in residues with no unit label.

Below are worked cases with known answers.
Substance | Result Units | no. of residues, unordered
141–190 ^c: colicin E1 T-domain peptide, residues 141–190 (KEAEAAEKAFQEAEQRRKEIEREKAETERQLKLAEAEEKRLAALSEEAKA) | residues | 5
81–140 ^b: colicin E1 T-domain peptide, residues 81–140 (AKAKANRDALTQRLKDIVNEALRHNASRTPSATELAHANNAAMQAEDERLRLAKAEEKAR; UniProt P02978 81-140, looked up, fragment) | residues | 25
1–40 ^c: colicin E1 T-domain peptide, residues 1–40 (METAVAYYKDGVPYDDKGQVIITLLNGTPDGSGSGGGGGK; UniProt P02978 1-40, looked up, fragment) | residues | 40
100–140 ^b: colicin E1 T-domain peptide, residues 100–140 (EALRHNASRTPSATELAHANNAAMQAEDERLRLAKAEEKAR; UniProt P02978 100-140, looked up, fragment) | residues | 15
H-EALRHNASRTPSATELAHANN-OH [100–120 ^e] | residues | 21

We now examine a further substance.
Short answer for 139–190 ^b: colicin E1 T-domain peptide, residues 139–190 (ARKEAEAAEKAFQEAEQRRKEIEREKAETERQLKLAEAEEKRLAALSEEAKA; UniProt P02978 139-190, looked up, fragment) : no. of residues, unordered was 7
